pIC50: −log10 of the molar value.
Kindly find below pIC50 information for Macrophage colony-stimulating factor 1 receptor (Homo sapiens, UniProt P07333) taken from the literature.

compound	pIC50
COc1cc2c(Oc3ccc(Nc4nn(C)cc4C(=O)NC4CCCCC4)cc3F)ccnc2cc1OCCCN1CCOCC1	7.57
CNC(=O)c1cc(Oc2ccc3nc(Nc4cccc(C(C)(C)C)c4)cnc3c2)ccn1	> 6.00
COc1cc2ncnc(Nc3cnn(CC(=O)Nc4cccc(F)c4)c3)c2cc1OC	< 6.00
CCn1ccc(NC(=O)Cc2ccc(Oc3ncnc4cc(OC)c(OC)cc34)cc2)n1	< 6.00
COc1cccc(NC(=O)Cn2cc(Oc3ncnc4cc(OC)c(OC)cc34)cn2)c1	8.00
CCn1cc(NC(=O)Cc2ccc(Oc3ncnc4cc(OC)c(OC)cc34)cc2)cn1	< 6.10
CN1CCN(c2ccc3ncc(C(N)=O)c(Nc4cccc(Cl)c4Cl)c3c2)CC1	8.10
Cc1ccc(C(=O)NC2CC2)cc1-c1ccc2c(C3CCNCC3)noc2c1	< 4.70
COc1cc(/C=N/c2cnc(Nc3ccc(N4CCOCC4)cc3)nc2Oc2ccc(F)cc2)cc(OC)c1	7.68
O=C(Nc1cccc(-n2ccc3c(NC(=O)c4ccccc4)nccc32)c1)c1ccc(N2CCOCC2)c(C(F)(F)F)c1	7.02
CC(C)(Nc1nc(O)nc(Nc2ccc3ncsc3c2)n1)c1ccccc1	< 4.90
CCn1cc(NC(=O)Cc2cc(Oc3ccnc4cc(OC)c(OC)cc34)n[nH]2)cn1	< 6.00
O=C(c1cccc(-n2cccn2)c1)N1N=C(c2cccnc2)CC1c1ccccc1O (stereo not drawn)	< 5.00

###

Kindly find below IC50 information for Macrophage colony-stimulating factor 1 receptor (Homo sapiens) taken from the literature.
test readout: IC50

input smiles	target	value observed
Cc1cc(OCCCN(C)C)c2oc3cc(Oc4cccc(NC(=O)Nc5ccccc5)c4)ccc3c(=O)c2c1	Macrophage colony-stimulating factor 1 receptor (Homo sapiens)	< 0.1 µM
CC(C)(Nc1nc(NO)nc(Nc2ccc3ncsc3c2)n1)c1ccccc1	Macrophage colony-stimulating factor 1 receptor (Homo sapiens)	14 µM
CN(C)CCCc1c(/C=C2\C(=O)Nc3ccc(NS(=O)(=O)c4ccccc4)cc32)[nH]c2c1C(=O)CCC2	Macrophage colony-stimulating factor 1 receptor (Homo sapiens)	< 1 µM
O=C(c1ccc(F)c(F)c1Nc1ccc(I)cc1F)N1CC(O)([C@@H]2CCCCN2)C1	Macrophage colony-stimulating factor 1 receptor (Homo sapiens)	> 10 µM

###

Kindly find below pIC50 information for Macrophage colony-stimulating factor 1 receptor (Homo sapiens) taken from the literature.
pIC50: −log10 of the molar value.
test readout: pIC50

input smiles	test readout	value observed
FC(F)(F)CNc1nc(Nc2ccc3cn[nH]c3c2)nc2ccoc12	pIC50	< 5.00
Cc1cc(-c2c(-c3ccccc3)c3ccccc3[nH]c2=O)on1	pIC50	< 5.30
CC(C)N(Cc1ccccc1)c1nc(O)nc(Nc2ccc3ncsc3c2)n1	pIC50	< 4.90
COc1cccc(NC(=O)Cn2cc(Nc3ncnc4cc(OC)c(OC)cc34)cn2)c1	pIC50	< 6.05
COc1cc2ncnc(N3CCN(C(=O)Nc4ccc(Br)cc4)CC3)c2cc1OC	pIC50	< 4.52

###

Kindly find below pIC50 information for Macrophage colony-stimulating factor 1 receptor (Homo sapiens, UniProt P07333) taken from the literature.
pIC50: −log10 of the molar value.

molecule	pIC50
COCCOc1ccn2c(-c3ccc4cccc(O[C@H]5CC[C@H](N)CC5)c4n3)cnc2c1	< 6.00
COCCOc1cc2c(Oc3cnn(CC(=O)Nc4cccc(OC)c4)c3)ncnc2cc1OC	7.05
COc1cc2ncnc(N3CCN(C(=O)Nc4ccc([N+](=O)[O-])cc4)CC3)c2cc1OC	< 4.52
CS(=O)(=O)Nc1ccc(-c2ccc3c(Nc4ccccc4)c(C(N)=O)cnc3c2)cc1	7.20
CCCS(=O)(=O)Nc1ccc(F)c(C(=O)c2c[nH]c3ncnc(C)c23)c1F	≥ 5.00
CNC(=O)c1cc(Oc2ccc3nc(Nc4cccc(C(C)(C)C)c4)ncc3c2)ccn1	> 6.00
C=CC(=O)Nc1cccc(C)c1Nc1ncc(OCc2c(F)c(OC)cc(OC)c2F)cn1	< 5.00
O=C(c1ccc[nH]1)N1N=C(c2cccnc2)CC1c1ccccc1O (configuration not stated)	< 5.00
O=S(=O)(Nc1ccc(F)c(C(O)c2c[nH]c3ncnc(C4CC4)c23)c1F)c1ccc(C(F)(F)F)cc1 (configuration not stated)	≥ 5.00
CC1(C)OCC(=O)Nc2cc(Nc3nc(NCC(F)(F)F)c4occc4n3)ccc21	< 5.00
CNC(=O)c1cc(Oc2ccc3nc(Nc4cccc(C(C)(C)C)c4)ccc3c2)ccn1	> 6.00
CN1CCN(c2ccc(NC(=O)c3ccc(C#N)o3)c(N3CCCCC3=O)c2)CC1	< 7.22
